- Test system: Escherichia coli TOP10
- Test Name: shrunken log2 fold change of peptide-encoding DNA abundance (4.5 h post-induction vs induction); higher = less antimicrobial activity (less host growth inhibition)
- Condition Summary: time post-induction: 4.5 h; library: site-saturation at positions 5, 18, 19, 20
Rule: t for shrunken log2 fold change not less than 0.09, f for anything less.

These recorded examples may help you get a feel for the data.
Req: Answer whether shrunken log2 fold change of RRIRARPPRLPRPRPRPVWNPRP is greater than or equal to 0.09.
Resp: f

Req: Answer whether shrunken log2 fold change of RRIRLRPPRLPRPRPRPSPPPRP is greater than or equal to 0.09.
Resp: t

Req: Answer whether shrunken log2 fold change of RRIRKRPPRLPRPRPRPAWIPRP is greater than or equal to 0.09.
Resp: f

Req: Answer whether shrunken log2 fold change of RRIRSRPPRLPRPRPRPGYFPRP is greater than or equal to 0.09.
Resp: f

Req: Answer whether shrunken log2 fold change of RRIRIRPPRLPRPRPRPFMCPRP is greater than or equal to 0.09.
Resp: f

***
Req: Answer whether shrunken log2 fold change of RRIRRRPPRLPRPRPRPNPFPRP is greater than or equal to 0.09.
Resp: t

###

- Test system: Escherichia coli TOP10
- Test Name: shrunken log2 fold change of peptide-encoding DNA abundance (4.5 h post-induction vs induction); higher = less antimicrobial activity (less host growth inhibition)
- Condition Summary: time post-induction: 4.5 h; library: site-saturation at positions 5, 18, 19, 20
In this section we review reported shrunken log2 fold change values for a set of sequences.
Please respond with just the number, no unit label.

Req: Please indicate shrunken log2 fold change recorded for RRIRCRPPRLPRPRPRPRYCPRP
Resp: -0.654

Req: Please indicate shrunken log2 fold change recorded for RRIRKRPPRLPRPRPRPVDIPRP
Resp: -0.0337

Req: Please indicate shrunken log2 fold change recorded for RRIRNRPPRLPRPRPRPMMQPRP
Resp: -0.208

Req: Please indicate shrunken log2 fold change recorded for RRIRQRPPRLPRPRPRPCFTPRP
Resp: -0.684

Req: Please indicate shrunken log2 fold change recorded for RRIRLRPPRLPRPRPRPDAHPRP
Resp: 0.133

***
Req: Please indicate shrunken log2 fold change recorded for RRIRPRPPRLPRPRPRPDKFPRP
Resp: -0.233

###

- Test system: Escherichia coli TOP10;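 note: peptides expressed intracellularly from a pBAD plasmid library in pooled LB shake-flask culture, induced with 0.3% L-arabinose, DNA abundance read by NGS, three biological replicates, DESeq2 with apeglm shrinkage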
- Test Name: shrunken log2 fold change of peptide-encoding DNA abundance (4.5 h post-induction vs induction); higher = less antimicrobial activity (less host growth inhibition)
- Condition Summary: time post-induction: 4.5 h; library: site-saturation at positions 5, 18, 19, 20
In this section we review reported shrunken log2 fold change values for a set of sequences.

Example entries begin here.
Req: Please indicate shrunken log2 fold change recorded for RRIRIRPPRLPRPRPRPVCFPRP
Resp: -0.256

Req: Please indicate shrunken log2 fold change recorded for RRIRYRPPRLPRPRPRPWCWPRP
Resp: -0.153

Req: Please indicate shrunken log2 fold change recorded for RRIRLRPPRLPRPRPRPTAIPRP
Resp: -0.17

Req: Please indicate shrunken log2 fold change recorded for RRIRYRPPRLPRPRPRPTWSPRP
Resp: -0.58

Req: Please indicate shrunken log2 fold change recorded for RRIRPRPPRLPRPRPRPFQFPRP
Resp: -0.467

Req: Please indicate shrunken log2 fold change recorded for RRIRTRPPRLPRPRPRPFVRPRP
Resp: -1.25

***
Req: Please indicate shrunken log2 fold change recorded for RRIRVRPPRLPRPRPRPQAYPRP
Resp: -0.00917

Req: Please indicate shrunken log2 fold change recorded for RRIRRRPPRLPRPRPRPNIIPRP
Resp: -0.0888

Req: Please indicate shrunken log2 fold change recorded for RRIRARPPRLPRPRPRPAAQPRP
Resp: 0.916

Req: Please indicate shrunken log2 fold change recorded for RRIRTRPPRLPRPRPRPCSYPRP
Resp: -0.129

Req: Please indicate shrunken log2 fold change recorded for RRIRWRPPRLPRPRPRPFRGPRP
Resp: 0.0269

Req: Please indicate shrunken log2 fold change recorded for RRIRKRPPRLPRPRPRPRRQPRP
Resp: 0.333

Req: Please indicate shrunken log2 fold change recorded for RRIRTRPPRLPRPRPRPWRNPRP
Resp: -0.253

Req: Please indicate shrunken log2 fold change recorded for RRIRARPPRLPRPRPRPHHCPRP
Resp: -0.859

Req: Please indicate shrunken log2 fold change recorded for RRIRFRPPRLPRPRPRPDTMPRP
Resp: -0.0817

Req: Please indicate shrunken log2 fold change recorded for RRIRARPPRLPRPRPRPHLKPRP
Resp: 0.01

Req: Please indicate shrunken log2 fold change recorded for RRIRHRPPRLPRPRPRPQHTPRP
Resp: -0.386

Req: Please indicate shrunken log2 fold change recorded for RRIRVRPPRLPRPRPRPYSMPRP
Resp: -0.692
